Target Entity: T1, ATF2 bZIP (human, UniProt P15336 352-410)
T1 sequence: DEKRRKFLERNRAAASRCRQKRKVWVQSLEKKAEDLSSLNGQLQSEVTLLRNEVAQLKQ
Assay Summary: fluorescence polarization; 10 nM DNA, ATF2 12 nM-10 uM; FP: chloride salt (buffer and salt concentration truncated in material), 5 mM MgCl2, 10 mM TCEP, pH 7.4; 10 nM FAM-DNA; 1 h incubation, temperature not in material
Condition Details: chain copies: 2; label: 5' 6-FAM; blunt; self-complementary, 2 copies

[
  {
    "Binder": "FAM-CRE (dsDNA) DNA 1: GCGCTGACGTCAGCGC DNA 2: GCGCTGACGTCAGCGC",
    "Result Unit": "nM",
    "Kd": 277
  }
]
